Biological target: DNA gyrase (Staphylococcus aureus) (UniProt P0A0K8+P20831)
Sequence (P0A0K8 2-644 limits assumed): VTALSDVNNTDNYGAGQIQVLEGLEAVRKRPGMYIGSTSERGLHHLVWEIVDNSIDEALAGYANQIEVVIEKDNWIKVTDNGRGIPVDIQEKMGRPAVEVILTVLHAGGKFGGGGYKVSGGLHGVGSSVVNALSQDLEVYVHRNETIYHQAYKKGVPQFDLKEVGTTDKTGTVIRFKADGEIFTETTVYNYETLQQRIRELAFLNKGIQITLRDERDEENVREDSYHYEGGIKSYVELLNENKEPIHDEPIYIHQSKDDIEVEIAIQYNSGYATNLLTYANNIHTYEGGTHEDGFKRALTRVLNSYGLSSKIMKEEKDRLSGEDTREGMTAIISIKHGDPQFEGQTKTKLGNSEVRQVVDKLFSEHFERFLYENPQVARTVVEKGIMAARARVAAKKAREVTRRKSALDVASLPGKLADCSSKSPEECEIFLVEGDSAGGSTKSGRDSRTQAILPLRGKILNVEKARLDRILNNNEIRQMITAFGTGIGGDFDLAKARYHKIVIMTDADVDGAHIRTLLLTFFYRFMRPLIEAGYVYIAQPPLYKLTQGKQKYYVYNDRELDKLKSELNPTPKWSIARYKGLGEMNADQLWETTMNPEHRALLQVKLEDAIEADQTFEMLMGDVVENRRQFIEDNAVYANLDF
Sequence (P20831 whole entry partner): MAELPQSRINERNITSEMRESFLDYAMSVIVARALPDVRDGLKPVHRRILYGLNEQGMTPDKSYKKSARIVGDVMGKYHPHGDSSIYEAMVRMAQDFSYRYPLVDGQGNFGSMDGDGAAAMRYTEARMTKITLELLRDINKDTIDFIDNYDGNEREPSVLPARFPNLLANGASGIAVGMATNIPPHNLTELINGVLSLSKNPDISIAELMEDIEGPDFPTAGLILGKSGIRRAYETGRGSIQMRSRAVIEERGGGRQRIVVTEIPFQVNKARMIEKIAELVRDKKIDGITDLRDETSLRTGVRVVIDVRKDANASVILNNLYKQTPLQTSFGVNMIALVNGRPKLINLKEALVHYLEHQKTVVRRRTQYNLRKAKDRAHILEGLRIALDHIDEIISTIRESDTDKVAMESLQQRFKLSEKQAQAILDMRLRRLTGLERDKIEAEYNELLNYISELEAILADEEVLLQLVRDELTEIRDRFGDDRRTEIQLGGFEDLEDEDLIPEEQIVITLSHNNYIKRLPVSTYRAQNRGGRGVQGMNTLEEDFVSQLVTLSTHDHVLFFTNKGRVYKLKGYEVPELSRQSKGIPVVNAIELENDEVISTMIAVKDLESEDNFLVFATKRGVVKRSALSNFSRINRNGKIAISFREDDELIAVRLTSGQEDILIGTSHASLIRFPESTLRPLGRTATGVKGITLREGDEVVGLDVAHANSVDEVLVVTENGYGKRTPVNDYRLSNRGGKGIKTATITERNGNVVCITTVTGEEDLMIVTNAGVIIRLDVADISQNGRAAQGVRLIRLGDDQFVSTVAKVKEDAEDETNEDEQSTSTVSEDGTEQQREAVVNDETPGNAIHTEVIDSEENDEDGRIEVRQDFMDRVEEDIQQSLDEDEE
Experiment: In vivo efficacy against Staphylococcus aureus NCTC-10649M after subcutaneous administration
Assay type: functional, organism-based
log10(ED50) listing for selected compounds.
value.type: log10(ED50) (log10 of the value in mg/kg)

compound	test.system	log10(ED50)
Cc1c(N2CCC(N(C)C)C2)c(F)cn2c(=O)c(C(=O)O)cc(C3CC3)c12 (configuration not stated)	DNA gyrase (Staphylococcus aureus) (UniProt P0A0K8+P20831)	0.67
Cc1c(N2C[C@@H]3CCN[C@@H]3C2)c(F)cn2c(=O)c(C(=O)O)cc(C3CC3)c12 (stereo in doubt; (S,S)45o)	DNA gyrase (Staphylococcus aureus) (UniProt P0A0K8+P20831)	0.18
Cc1c(N2C[C@@H]3CCCN[C@@H]3C2)c(F)cn2c(=O)c(C(=O)O)cc(C3CC3)c12 (stereo in doubt; 45n)	DNA gyrase (Staphylococcus aureus) (UniProt P0A0K8+P20831)	-0.05
Cc1c(N2C[C@H]3CCC[C@@H](N)[C@H]3C2)c(F)cn2c(=O)c(C(=O)O)cc(C3CC3)c12	DNA gyrase (Staphylococcus aureus) (UniProt P0A0K8+P20831)	-0.52
CNC1CCN(c2c(F)cn3c(=O)c(C(=O)O)cc(C4CC4)c3c2C)C1 (configuration not stated)	DNA gyrase (Staphylococcus aureus) (UniProt P0A0K8+P20831)	-0.05
Cc1c(N2C[C@@H]3CCCN[C@@H]3C2)c(F)cn2c(=O)c(C(=O)O)cc(C3CC3)c12 (stereo in doubt; (S,S)45n)	DNA gyrase (Staphylococcus aureus) (UniProt P0A0K8+P20831)	-0.30
